// provenance: PubChem BioAssay

assay: compound binding in COS7 lysate, probe aLAP1, primary screen, cell lysate, small-molecule microarray (AID 1124); settings: probe aLAP1, fluorescence, higher = more signal;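 note: lysate comes from COS7 cells expressing LAP1 and is applied at 0.3 µg/mL; score merges spot fluorescence near 667 nm with signal-to-noise over triplicate slides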
Assign satisfied whenever composite z-score does not fall below 0.07; assign not satisfied whenever it does.

>>> discrete_label("COCCCNC(=O)[C@@H]1c2ccccc2C(=O)N(C2CCCCC2)[C@H]1c1ccc(CO)cc1")
"not satisfied"
>>> discrete_label("COCCOC(=O)N1C(=O)[C@@]2(c3cc(C#CC4(O)CCCCCC4)ccc31)[C@H](c1ccccc1OCCO)N1[C@H](c3ccccc3)[C@H](c3ccccc3)OC(=O)[C@H]1[C@@H]2C(=O)N1CCCCCCC1")
"satisfied"
>>> discrete_label("CC(c1ccccc1)C(O)C1C=CC2C(=O)N(c3ccccc3)C(=O)C2N1Nc1ccc(C#N)cc1 (stereo not given)")
"satisfied"
>>> discrete_label("CC=CC(O)C1C=CC2C(=O)N(C)C(=O)C2N1NC(=O)OC(C)(C)C (stereo not given)")
"satisfied"
>>> discrete_label("C=C(COC)/C(=C/C[C@@H](OC(C)=O)c1ccccc1OCCO)c1cc(C(=O)OC)ccc1OC")
"satisfied"
>>> discrete_label("COC(=O)C1(CC(C)C)C=C2C(=C(C(C)C)C(=O)C2C)CN1 (stereo not given)")
"not satisfied"
>>> discrete_label("CN1C(=O)[C@]2(CCS(=O)(=O)c3ccccc3)N=C(c3ccc(OCCCO)cc3)O[C@@H]2c2ccccc21")
"satisfied"
>>> discrete_label("COc1ccccc1CN1C(=O)c2ccccc2[C@](Cc2ccccc2I)(C(=O)NCCCN(C)C)[C@@H]1c1ccc(CO)cc1")
"satisfied"
>>> discrete_label("C=CCC(OC(C)=O)[C@@H]1[C@@H](N(Cc2cccc3ccccc23)C(=O)c2cccc3ccccc23)c2cc(OCCCO)ccc2N1C(=O)Cc1ccc2ccccc2c1 (stereo not given in full)")
"not satisfied"
>>> discrete_label("CCCC=C(CCC)[C@@H](NC(=O)c1ccco1)c1ccc(C(=O)OC)cc1")
"satisfied"
>>> discrete_label("COc1ccc(NN2C(C(O)c3ccc(OC)cc3)C=CC3C(=O)N(C4CCCCC4)C(=O)C32)cc1 (stereo not given)")
"not satisfied"
>>> discrete_label("C[N+](C)(C)CCCC[C@@H]1NC(=O)[C@H]2C[C@@H](C(=O)NCCCCCNC(=O)CS)[C@@H](c3ccc(O)cc3)N2C1=O")
"satisfied"
>>> discrete_label("CCOC(=O)C1=CC[C@@H](c2ccc(F)cc2)N(S(=O)(=O)c2ccc(C)cc2)[C@H]1c1ccc([N+](=O)[O-])cc1")
"not satisfied"
>>> discrete_label("COC(=O)[C@@]1(Cc2ccc(OC)cc2)[C@@H]2[C@@H](CC(=O)[C@H]2CC(=O)C(=O)N2CCCC2)CN1C(=O)c1ccccc1")
"satisfied"
>>> discrete_label("CCOC(=O)C[C@H]1[C@H](OC(=O)c2ccc(C(=O)c3ccccc3)cc2)[C@@H](NC(=O)c2ccc3ccccc3c2)c2cc(OCCCO)ccc2N1C(=O)c1ccc2ccccc2n1")
"satisfied"
>>> discrete_label("COCCOC(=O)N1C(=O)[C@@]2(c3ccccc31)[C@H](C(=O)N1CCCCCCC1)[C@H]1C(=O)O[C@H](c3ccccc3)[C@H](c3ccccc3)N1[C@@H]2c1ccc(O)cc1")
"satisfied"
>>> discrete_label("CC(C)C[C@H]1NC(=O)[C@H](Cc2ccccc2)NC(=O)[C@@]23C(=O)N[C@@H](Cc4ccccc4)C2[C@H](C)[C@@]2(C)O[C@H]2C3/C=C/C/C=C\\CNC1=O (stereo not given in full)")
"satisfied"
>>> discrete_label("COCCn1c(C(=O)N2CCCC2)cc2c1C[C@H]1CN(C(=O)c3ccccc3)[C@@](Cc3ccccc3)(C(=O)OC)[C@@H]21")
"satisfied"
>>> discrete_label("CCC[C@@H]1C=C(C(=O)OCC)[C@H](c2ccccc2)N1S(=O)(=O)c1ccc(C)cc1")
"satisfied"
>>> discrete_label("COC(=O)[C@]1(CO)N=C(c2ccc(OCCCO)cc2)O[C@@H]1c1ccccc1CN=[N+]=[N-]")
"not satisfied"
>>> discrete_label("CC(C)C[C@H]1NC(=O)[C@@]23C(=O)N[C@@H](Cc4ccccc4)C2[C@H](C)[C@@]2(C)O[C@H]2C3/C=C/C/C=C\\CNC(=O)[C@@H]2CCCN2C1=O (stereo not given in full)")
"satisfied"
>>> discrete_label("CCC[C@@H]1[C@@H](Sc2ccccc2)[C@@H](C(=O)O)[C@H](c2ccc(C)cc2)N1S(=O)(=O)c1ccc(C)cc1")
"satisfied"
>>> discrete_label("CO[C@H]1O[C@H](CO)[C@@H](OC(=O)Nc2ccc(C(F)(F)F)cc2)[C@H](OC(=O)Nc2ccccc2-c2ccccc2)[C@@H]1OC(=O)Nc1ccccc1-c1ccccc1")
"satisfied"
>>> discrete_label("C=C(C(=O)CC[C@@H](OC(C)=O)c1cccc(OCCO)c1)C(C)C")
"not satisfied"

* * *

# maps each entry to its composite z-score
target: Dickkopf-related protein 1 (Homo sapiens); experiment: DKK1 binders on small-molecule microarrays, primary screen, biochemical, small-molecule microarray, 635 nm fluorescence scan (AID 1106); conditions: DKK1 binding, higher = more signal;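 note: score merges emission near 667 nm with signal to noise over three replicate slides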
quantity: composite z-score

>>> measured_value("CCCCN1CC=CC23O[C@@H]4C=CCOC(=O)[C@@H]4[C@H]2C(=O)N(C(CO)C(C)C)[C@@H]3C1=O (stereo partly drawn)")
0.185
>>> measured_value("CC(C)CNC(=O)[C@@H]1c2ccccc2C(=O)N(Cc2ccccc2)[C@H]1c1ccc(CO)cc1")
-1.05
>>> measured_value("C=C(COC)C(=O)CC[C@@H](OC(C)=O)c1ccc(OCCO)cc1")
-0.0393
>>> measured_value("N#Cc1ccc(C(O)C2C=CC3C(=O)NC(=O)C3N2Nc2ccccn2)cc1 (stereo not drawn)")
0.0057
>>> measured_value("COCCn1c(C(=O)N2CCCC2)cc2c1C[C@H]1CN(C(=O)c3ccccc3)[C@@](Cc3ccccc3)(C(=O)OC)[C@@H]21")
0.257
>>> measured_value("CC1CC/C=C\\[C@H]2OC34C=CCN(c5ccc(Cl)cc5)C(=O)[C@H]3N(CCCO)C(=O)[C@]4(C)C2C(=O)O1 (stereo partly drawn)")
-1.42
>>> measured_value("CC(C)CNC(=O)[C@@H]1c2ccccc2C(=O)N(Cc2ccccc2Cl)[C@H]1c1ccc(CO)cc1")
-1.17
>>> measured_value("COc1ccc(NC(=O)O[C@H]2[C@H](OC(=O)Nc3ccc4c(c3)OCO4)[C@H](OC(=O)Nc3ccc4c(c3)OCO4)[C@@H](OC)O[C@@H]2CO)cc1")
0.409
>>> measured_value("CCCC[C@H]1OB(O)C[C@H]2C1=C(COC)C[C@H]1C(=O)C=CC(=O)[C@H]12")
0.717
>>> measured_value("COc1ccc(CCNC(=O)[C@@H]2c3ccccc3C(=O)N(CC34CC5CC(CC(C5)C3)C4)[C@H]2c2ccc(CO)cc2)cc1")
0.323
>>> measured_value("COCCOC(=O)N1C(=O)[C@@]2(c3cc(C#CC4=CCCCC4)ccc31)[C@H](C(=O)N1CCc3cc(OC)c(OC)cc3C1)[C@H]1C(=O)O[C@H](c3ccccc3)[C@H](c3ccccc3)N1[C@@H]2c1ccc(O)cc1")
0.391
>>> measured_value("O=C1N(Cc2ccccc2)c2ccccc2[C@H]2OC(c3ccc(OCCCO)cc3)=N[C@@]12Cc1ccccc1")
0.194
>>> measured_value("CCN(CC)c1ccc(N2CC=CC34O[C@@H]5C=CCOC(=O)[C@@H]5[C@H]3C(=O)N(CCO)[C@@H]4C2=O)cc1 (stereo partly drawn)")
-1.51
>>> measured_value("CO[C@H]1O[C@H](CO)[C@@H](OC(=O)Nc2ccc(C(F)(F)F)cc2)[C@H](OC(=O)Nc2ccccc2-c2ccccc2)[C@H]1OC(=O)Nc1ccccc1-c1ccccc1")
0.162
>>> measured_value("C=CC[C@@]1(C(=O)O)N=C(c2ccc(OCCCO)cc2)O[C@@H]1c1ccccc1CN=[N+]=[N-]")
0.592
>>> measured_value("COC(=O)[C@@]1(Cc2ccccc2)[C@@H]2[C@@H](CC(=O)[C@H]2CC(=O)C(=O)N(C)C)CN1C(=O)c1ccccc1")
-0.782
>>> measured_value("NC(=O)N1C(=O)C2C(C1=O)C1C=C(CCCO)C2C(c2ccc(CN3CCCC3)cc2)N1Cc1cccc(OC(F)(F)F)c1 (stereo not drawn)")
0.723
>>> measured_value("CC(C)C(=C=CC[C@@H](O)c1cccc(OCCO)c1)CCO")
0.137

* * *

# maps each entry to its z-score
experiment: P. aeruginosa biofilm formation inhibitors, primary screen, strain PAO1, LB-PBS medium, absorbance 600 nm (AID 1176); note: test concentration not given here; conditions: P. aeruginosa PAO1 growth/biofilm, A600, 12 h; higher = more signal
The source made the active and inactive calls. The rule behind the calls is not given here.
quantity: z-score

>>> measured_value("COCCOC(=O)N1C(=O)[C@@]2(c3cc(C#CCC(C(=O)OC)C(=O)OC)ccc31)[C@H](C(N)=O)[C@H]1C(=O)O[C@H](c3ccccc3)[C@H](c3ccccc3)N1[C@@H]2c1ccc(OCCO)cc1")
"2.88 (inactive)"
>>> measured_value("COc1ccc([Si](C)(C)[C@@H]2[C@@H](CC(=O)N(CCO)Cc3ccccc3)O[C@]3(C(=O)N(Cc4ccc(N5CCC5=O)cc4)c4ccccc43)[C@H]2C)cc1")
"1.2 (inactive)"
>>> measured_value("COC(=O)C(CC#Cc1ccc2c(c1)[C@]1(C(=O)N2)[C@H](c2ccc(O)cc2)N2[C@H](c3ccccc3)[C@H](c3ccccc3)OC(=O)[C@H]2[C@@H]1C(=O)N1CCc2cc(OC)c(OC)cc2C1)C(=O)OC")
"0.573 (inactive)"
